Tested Target: MSK2 domain1 (Homo sapiens (Human), UniProt O75676)
Sequence (O75676 whole entry, the tested form may be a part): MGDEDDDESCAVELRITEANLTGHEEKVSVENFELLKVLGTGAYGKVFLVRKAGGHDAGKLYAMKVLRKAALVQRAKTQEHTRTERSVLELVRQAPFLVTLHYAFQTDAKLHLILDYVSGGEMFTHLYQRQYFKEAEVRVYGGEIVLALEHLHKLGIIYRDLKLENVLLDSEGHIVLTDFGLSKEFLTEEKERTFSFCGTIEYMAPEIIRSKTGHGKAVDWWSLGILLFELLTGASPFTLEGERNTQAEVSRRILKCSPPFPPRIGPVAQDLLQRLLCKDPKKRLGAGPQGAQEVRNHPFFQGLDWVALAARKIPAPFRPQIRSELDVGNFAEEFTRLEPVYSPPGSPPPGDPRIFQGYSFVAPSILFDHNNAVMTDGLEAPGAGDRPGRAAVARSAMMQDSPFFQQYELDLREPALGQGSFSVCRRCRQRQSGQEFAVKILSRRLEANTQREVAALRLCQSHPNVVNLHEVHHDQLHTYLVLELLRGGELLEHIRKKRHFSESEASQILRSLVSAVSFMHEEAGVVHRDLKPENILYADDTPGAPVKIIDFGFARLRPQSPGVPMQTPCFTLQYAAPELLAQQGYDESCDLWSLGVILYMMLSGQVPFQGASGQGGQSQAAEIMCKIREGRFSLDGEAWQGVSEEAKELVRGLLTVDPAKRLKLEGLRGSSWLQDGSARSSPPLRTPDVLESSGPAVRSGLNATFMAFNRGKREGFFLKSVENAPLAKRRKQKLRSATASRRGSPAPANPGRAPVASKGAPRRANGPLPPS
Procedure Details: KINATIV assay
Assay type: cell-based
Setup Conditions: 1 μM, 90 minutes, BCWM.1 cells
Property Name: % change of MS signal compared to control sample (%)

[
  {
    "Molecule": "C=CC(=O)N1CCC(CNc2nccc(Nc3ncc(C(=O)Nc4c(C)cccc4C)s3)n2)C1 (racemic)",
    "Recorded Number": "−47.7"
  },
  {
    "Molecule": "C=CC(=O)N1CCC(Cn2ccc(Nc3ncc(C(=O)Nc4c(C)cccc4Cl)s3)n2)C1 (stereo not shown)",
    "Recorded Number": "−33.9"
  },
  {
    "Molecule": "C=CC(=O)N1CC[C@@H](Nc2nccc(Nc3ncc(C(=O)Nc4c(C)cccc4C)s3)n2)C1",
    "Recorded Number": "−9.6"
  },
  {
    "Molecule": "C=CC(=O)N1CCCCC(Nc2nccc(Nc3ncc(C(=O)Nc4c(C)cccc4C)s3)n2)C1 (stereo not shown)",
    "Recorded Number": "−45.3"
  }
]
